Measured IC50 accompanies every entry in the list below.
target: glucosylceramide synthase (Homo sapiens, UniProt Q16739); construct: Microsomes were isolated from A375 human melanoma cells; endogenous in cells; assay: microsomal assay measuring conversion of ceramide to glucosylceramide by HPLC (GCS IC50); conditions: concentration causing 50% inhibition of glucosylceramide synthase activity
Sequence (Q16739 whole entry): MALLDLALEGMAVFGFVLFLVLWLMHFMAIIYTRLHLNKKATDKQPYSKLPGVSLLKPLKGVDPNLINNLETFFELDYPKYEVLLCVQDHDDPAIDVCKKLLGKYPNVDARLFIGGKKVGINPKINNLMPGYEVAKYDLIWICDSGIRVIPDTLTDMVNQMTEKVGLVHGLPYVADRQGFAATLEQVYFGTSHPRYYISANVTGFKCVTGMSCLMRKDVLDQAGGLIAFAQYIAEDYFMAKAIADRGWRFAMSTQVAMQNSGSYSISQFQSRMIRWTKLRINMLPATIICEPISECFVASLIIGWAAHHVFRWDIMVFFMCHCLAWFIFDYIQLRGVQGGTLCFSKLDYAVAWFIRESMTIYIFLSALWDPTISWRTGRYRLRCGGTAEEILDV

>  <compound>
COCC(C)(C)c1ccc(C#CC(C)(C)NC(=O)NC2(C)CN3CCC2CC3)cc1 (stereo not drawn) [Example 339]

>  <test_system>
glucosylceramide synthase (Homo sapiens, UniProt Q16739)

>  <readout_units>
µM

>  <IC50>
0.136

$$$$
>  <compound>
C[C@@H]1CN(C(=O)NC2(C)CCN3CCC2CC3)CCN1c1nccc(-c2ccccc2)n1 (single isomer, unassigned) [Example 138]

>  <test_system>
glucosylceramide synthase (Homo sapiens, UniProt Q16739)

>  <readout_units>
µM

>  <IC50>
0.902

$$$$
>  <compound>
CC(C)(C)CCS(=O)(=O)c1ccc(C#CC(C)(C)NC(=O)OC2CCN3CCC2CC3)cc1 (stereo not drawn) [Example 335]

>  <test_system>
glucosylceramide synthase (Homo sapiens, UniProt Q16739)

>  <readout_units>
µM

>  <IC50>
0.0146

$$$$

---

tested on: B16 mouse melanoma cells; experiment: cell viability in the B16 cell-based assay (Viability, B16 IC50); details: Mus musculus, B16, read-out: Viability, B16 IC50
pIC50: −log10 of the molar value.
quantity: pIC50

>  <compound>
CC(C)(NC(=O)OC1CN2CCC1CC2)c1ccc(-c2ccc(C(=O)N3CCC(F)(F)CC3)cc2)cc1 (stereo not shown)

>  <quantity>
pIC50

>  <observed>
≤ 5.00

$$$$
>  <compound>
CC(C)(NC(=O)OC1CN2CCC1CC2)c1ccc(-c2ccc(N3CCOCC3)cc2)cc1 (stereo not shown)

>  <quantity>
pIC50

>  <observed>
5.70

$$$$
>  <compound>
CC(C)(NC(=O)OC1CN2CCC1CC2)c1ccc(-c2ccc(S(=O)(=O)CC3CC3)cc2)cc1 (stereo not shown)

>  <quantity>
pIC50

>  <observed>
≤ 5.00

$$$$
>  <compound>
CC(C)(NC(=O)OC1CN2CCC1CC2)c1ccc(-c2ccc(C(=O)N3CCOCC3)cc2)cc1 (stereo not shown)

>  <quantity>
pIC50

>  <observed>
≤ 5.00

$$$$
>  <compound>
COCCCOc1cnc(-c2ccc(C(C)(C)NC(=O)OC3CN4CCC3CC4)cc2)cn1 (stereo not shown)

>  <quantity>
pIC50

>  <observed>
≤ 5.00

$$$$
>  <compound>
COCCCOc1cnc(-c2cccc(C(C)(C)NC(=O)OC3CN4CCC3CC4)c2)nc1 (stereo not shown)

>  <quantity>
pIC50

>  <observed>
≤ 5.00

$$$$
>  <compound>
CC(C)(NC(=O)OC1CN2CCC1CC2)c1ccc(-c2ccc(S(C)(=O)=O)cc2)cc1 (stereo not shown)

>  <quantity>
pIC50

>  <observed>
≤ 5.00

$$$$
>  <compound>
COCCCS(=O)(=O)c1ccc(-c2ccc(C(C)(C)NC(=O)OC3CN4CCC3CC4)cc2)cc1 (stereo not shown)

>  <quantity>
pIC50

>  <observed>
≤ 5.00

$$$$
>  <compound>
CC(C)(NC(=O)OC1CN2CCC1CC2)c1ccc(-c2ccc(OCC#N)cc2)cc1 (stereo not shown)

>  <quantity>
pIC50

>  <observed>
≤ 5.00

$$$$
>  <compound>
CC(C)(NC(=O)OC1CN2CCC1CC2)c1ccc(-c2ccc(CCc3c[nH]nn3)cc2)cc1 (stereo not shown)

>  <quantity>
pIC50

>  <observed>
≤ 5.00

$$$$
>  <compound>
COCCOc1ccc(-c2cccc(C(C)(C)NC(=O)OC3CN4CCC3CC4)c2)cc1 (stereo not shown)

>  <quantity>
pIC50

>  <observed>
≤ 5.00

$$$$
>  <compound>
CNC(=O)c1ccc(Oc2ccc(C(C)(C)NC(=O)OC3CN4CCC3CC4)cc2)cc1 (stereo not shown)

>  <quantity>
pIC50

>  <observed>
≤ 5.00

$$$$
>  <compound>
CC(C)(NC(=O)OC1CN2CCC1CC2)c1ccc(-c2ccc(OCCC3COC3)cc2)cc1 (stereo not shown)

>  <quantity>
pIC50

>  <observed>
5.00

$$$$

---

tested on: GM3 expression on the cell surface, B16 mouse melanoma cells; assay: cell based phenotypic assay, cell surface GM3 by antibody mediated immunofluorescence, B16 (GM3 B16 IC50); details: Mus musculus, B16 mouse melanoma cells; 50% inhibition of GM3 expression on the cell surface; read-out: GM3 B16 IC50
Catalogue of IC50 readings, one per entry.

>  <molecule>
CNC(=O)c1cccc(Oc2cccc(C(C)(C)NC(=O)NC3(C)CN4CCC3CC4)c2)c1 (centres unmarked) [Example 296]

>  <test_system>
GM3 expression on the cell surface, B16 mouse melanoma cells

>  <limit_qualifier>
=

>  <IC50 [µM]>
5.47

$$$$
>  <molecule>
O=C(NC1CN2CCC1CC2)N1CCN(c2ccccc2)CC1 (centres unmarked) [Example 7]

>  <test_system>
GM3 expression on the cell surface, B16 mouse melanoma cells

>  <limit_qualifier>
>

>  <IC50 [µM]>
10

$$$$
>  <molecule>
COCCCOc1ccc(-c2nc(N3CCC(C(=O)NC4(C)CN5CCC4CC5)CC3)ncc2F)cc1 (centres unmarked) [Example 63]

>  <test_system>
GM3 expression on the cell surface, B16 mouse melanoma cells

>  <limit_qualifier>
=

>  <IC50 [µM]>
0.0408

$$$$
>  <molecule>
CC(C)(C)CCS(=O)(=O)c1ccc(C#CC(C)(C)NC(=O)NC2(C)CCN3CCC2CC3)cc1 (centres unmarked) [Example 336]

>  <test_system>
GM3 expression on the cell surface, B16 mouse melanoma cells

>  <limit_qualifier>
=

>  <IC50 [µM]>
0.0388

$$$$
>  <molecule>
COCCOCc1ccc(-c2ccc(C3(NC(=O)N[C@@]4(C)CN5CCC4CC5)CC3)cc2)cc1 [Example 211]

>  <test_system>
GM3 expression on the cell surface, B16 mouse melanoma cells

>  <limit_qualifier>
=

>  <IC50 [µM]>
0.683

$$$$
>  <molecule>
CC1(NC(=O)C2CCN(c3ccc(-c4ccccc4)cc3)CC2)CCN2CCC1CC2 (centres unmarked) [Example 38]

>  <test_system>
GM3 expression on the cell surface, B16 mouse melanoma cells

>  <limit_qualifier>
=

>  <IC50 [µM]>
2.6

$$$$
>  <molecule>
CNC(=O)c1ccc(-c2ccc(C(C)(C)NC(=O)NC3(C)CN4CCC3CC4)cc2)cc1 (centres unmarked) [Example 253]

>  <test_system>
GM3 expression on the cell surface, B16 mouse melanoma cells

>  <limit_qualifier>
=

>  <IC50 [µM]>
2

$$$$
>  <molecule>
CCCC1(NC(=O)NC(C)(C)C#Cc2ccc(COCc3cccnc3)cc2)CN2CCC1CC2 (centres unmarked) [Example 333]

>  <test_system>
GM3 expression on the cell surface, B16 mouse melanoma cells

>  <limit_qualifier>
=

>  <IC50 [µM]>
0.413

$$$$
